Provenance of the data: patent US4263316A

Quick list: LD50 per entry.
TEST: Acute toxicity (lethal dose) in Swiss mice, parenteral and oral
SETUP_CONDITIONS: mouse, in vivo, sc, subcutaneous, read-out: LD50 S.C.

{"MOLECULE": "CNS(=O)(=O)c1cc(OC)c(OC)c(C(=O)NCC2CCCN2C)c1 (centres unmarked) [Compound 1]", "RECORDED_VALUE": "936 to 960 mg/kg"}

Consider the additional molecule presented here.
Data point: CNS(=O)(=O)c1cc(OC)c(OC)c(C(=O)NCC2CCCN2C)c1 (single isomer, unassigned) [Compound 2] ; LD50 = 741 to 780 mg/kg

* * *

TEST: Acute toxicity (lethal dose) in Swiss mice, parenteral and oral
SETUP_CONDITIONS: mouse, in vivo, intravenous, read-out: LD50 I.V.
Procedure: The acute toxicity of the compounds of the invention was determined on Swiss mice parenterally, (intravenously, intraperitoneally, subcutaneously) and orally. Measurement of the lethal doses of N-(1-methyl-2-pyrrolidinylmethyl)-2,3-dimethoxy-5-methylsulphamoyl benzamide (compound 1) and its levorotatory isomer (compound 2) gave the following results: […]
MEASUREMENT_NAME: LD50

Data point: CNS(=O)(=O)c1cc(OC)c(OC)c(C(=O)NCC2CCCN2C)c1 (centres unmarked) [Compound 1] ; LD50 = 130 to 135 mg/kg

Data point: CNS(=O)(=O)c1cc(OC)c(OC)c(C(=O)NCC2CCCN2C)c1 (single isomer, unassigned) [Compound 2] ; LD50 = 90 to 94.6 mg/kg
